# System: Haemophilus influenzae
# measurementProtocol: Antimicrobial activity against imipenem-susceptible invasive nontypeable Haemophilus influenzae isolate 248 by Etest
# Assay type: functional
readoutName: MIC (µg/mL)
Answers are plain numbers, in µg/mL.

A selection of reference data follows.
>>> obsvalue("CO/N=C(\\C(=O)N[C@@H]1C(=O)N2C(C(=O)O)=C(COC(C)=O)CS[C@H]12)c1csc(N)n1 [CEFOTAXIME]")
0.016
>>> obsvalue("O=C(N[C@H](CO)[C@H](O)c1ccc([N+](=O)[O-])cc1)C(Cl)Cl [CHLORAMPHENICOL]")
0.38
>>> obsvalue("CC1(C)S[C@@H]2[C@H](NC(=O)[C@H](N)c3ccccc3)C(=O)N2[C@H]1C(=O)O [AMPICILLIN]")
0.125

The record that follows has no MIC shown yet.
q: Entry under review: C[C@@H](O)[C@H]1C(=O)N2C(C(=O)O)=C(SCCNC=N)C[C@H]12 [IMIPENEM ANHYDROUS] . Reported MIC?
a: 0.25

The measurements presented in this section are drawn from ChEMBL document CHEMBL1154422.
